Measured values drawn from ChEMBL document CHEMBL1157539 for this set.

- Tested on: Plasmodium falciparum
- measurementProtocol: GSK_TCMDC: Inhibition of Plasmodium falciparum 3D7 in whole red blood cells, using parasite LDH activity as an index of growth. Test compounds present at 2uM
- Type: functional
For each record, write down the corresponding Inhibition.
// units = %; emit number, no label

For this compound ( CC(C)(C)c1ccc(C(=O)NC2CCC(CCN3CCc4ccc(S(C)(=O)=O)cc4CC3)CC2)cc1C(F)(F)F (stereo unspecified) ), measured Inhibition is 88

The recorded Inhibition for entry COc1cc(Nc2ccnc3cc(-c4ccncc4)ccc23)cc(OC)c1OC.Cl equals 89

The reported Inhibition of the compound CC1CN(Cc2cccc(-c3ccc(-c4nc5ccccc5[nH]4)cc3)c2)CC(C)O1.O=C(O)C(F)(F)F (stereo unspecified) was 90

COc1cc(Nc2nccc(N3CCC(NC(=O)c4cccc(C#N)c4)C3)n2)cc(OC)c1OC (stereo unspecified) yielded Inhibition of 91

Inhibition reported for this compound Cc1ccc(NC(=O)c2ccc(CN3CCCN(CCC(C)C)CC3)cc2)cc1F.O=C(O)C(F)(F)F : 91

# compound CCCCCNc1nc2nc(N)nc(N)c2nc1-c1ccccc1.Cl ; its Inhibition = 91

* * *

- Test system: Plasmodium falciparum
- measurementProtocol: GSK_TCMDC: Inhibition of Plasmodium falciparum Dd2 in whole red blood cells, using parasite LDH activity as an index of growth. Test compounds present at 2uM
- Format: functional
Please provide measured Inhibition for the entries that follow.
Give the value; after it, write the unit.

The value of Inhibition measured for the molecule CCc1ccc2nc(-c3ccc(F)cc3)nc(SCC(=O)Nc3sc(C)c(C)c3C#N)c2c1 turned out to be 5%

// recorded Inhibition for N#Cc1nc2ccc(OCCN(Cc3ccccc3C(F)(F)F)c3ccc(C#N)c(C(F)(F)F)c3)cc2s1 : 47%

Please fill in: Inhibition reported for Fc1ccc2[nH]c(-c3ccc(-c4ccc(CNCc5ccccc5)cc4)cc3)nc2c1.O=C(O)C(F)(F)F = 94%

Inhibition recorded for this molecule, COc1cccc(C23NC(=Nc4nc5ccccc5[nH]4)NC2(c2cccc(OC)c2)NC(=Nc2nc4ccccc4[nH]2)N3)c1 (stereo not drawn) , is 99%

Note to self: Inhibition recorded for Cc1nc(-c2nc(NCc3ccncc3)ncc2-c2ccsc2)sc1C was 83%

In plain terms, CCOc1ccc(C(=O)Nc2cc(Br)c3c(c2)CNCC3)cc1Br.Cl has a documented Inhibition of 21%

For COc1ccc2ncc(C#N)c(CCN3CCC(NCc4cnc5c(c4)OCCO5)CC3)c2n1.Cl the molecule record lists Inhibition as 24%

Inhibition for Cc1cc(Cl)c(S(=O)(=O)NC(C)(C)C)cc1OCC(=O)NC1CCCCC1 is 53%

* * *

- System: Plasmodium falciparum
- measurementProtocol: GSK_TCMDC: Inhibition of Plasmodium falciparum Dd2 in whole red blood cells, using parasite LDH activity as an index of growth. Test compounds present at 2uM
- Type: functional
measurementKind: Inhibition (%)
Please give a number only; it is taken to be in %.

Inhibition of CC(C)COc1ccc(Cl)cc1Cc1ccc(-c2nc3cc(F)c(F)cc3[nH]2)o1 , assay on Plasmodium falciparum, is 96

Short answer on Plasmodium falciparum for COCn1ccc2c3c(N)nc(N)nc3ccc21 , Inhibition: 1

Record COc1cc(-c2cc(-c3ccc(OCCN(C)C)cc3)[nH]c2-c2ccncc2)ccc1Cl.Cl has Plasmodium falciparum Inhibition equal to 100

Reading of Inhibition for CCOc1cc2ncnc(Nc3ccc(OCc4c(Cl)cccc4Cl)c(OC)c3)c2cc1OCC.Cl with Plasmodium falciparum: 12

Given the compound O=C(O)C(F)(F)F.c1ccc(CNCCn2c(-c3ccc4c(c3)CCO4)nc3c(N4CCCC4)cccc32)cc1 and test system Plasmodium falciparum, the measured Inhibition is 85

* * *

- Test system: Plasmodium falciparum
- measurementProtocol: GSK_TCMDC: Inhibition of Plasmodium falciparum Dd2 in whole red blood cells, using parasite LDH activity as an index of growth. Test compounds present at 2uM
- Assay type: functional
Kind request: treat 90% as inclusive, so Inhibition at 90% or higher is rule met, anything lower is rule not met.

Threshold query (Inhibition >= 90%) on CNc1ccc(CNCc2cccc(-c3ccc(-c4nc5ccccc5[nH]4)cc3)c2)cc1.O=C(O)C(F)(F)F
rule not met

Identify whether the reported Inhibition of the following molecule is 90% or greater: CN(C)CCOc1ccc(NC(=O)NC(C)(C)c2nc(-c3ccc(Cl)c(O)c3)c(-c3ccncc3)[nH]2)cc1.Cl
rule met

Test whether the molecule COc1cc(NC(=O)c2sc(-c3ccc(Cl)cc3)cc2NC(=O)c2ccncc2)ccc1OCCN1CCCC1 records Inhibition of 90% or higher.
rule met

Tell me whether Inhibition is at least 90% here: CN(C)c1ccc(CN2CCCCC(NC(=O)c3cc(-c4ccccc4F)cs3)C2)cc1.O=C(O)C(F)(F)F (configuration not stated)
rule not met

Evaluate Cn1nc(-c2ccc(NC(=O)Nc3cc(C(F)(F)F)ccc3F)c(F)c2)c2cnc(NCCCn3ccnc3)nc21.O=C(O)C(F)(F)F : Inhibition at minimum 90%?
rule met

Hi, just wondering whether O=C1CN(C(=O)CCC2CCCC2)C(c2ccc(F)cc2)c2cc(F)ccc2N1 (configuration not stated) shows Inhibition of 90% or higher.
rule not met

Decide: Inhibition of COc1cc(C(=O)N2CCN(C(C)C)CC2)ccc1CN(C)CCCN1CCN(c2cccc(Cl)c2Cl)CC1.Cl >= 90%?
rule not met

* * *

- Test system: HepG2
- measurementProtocol: GSK_TCMDC: Percent inhibition of human HepG2 cell line. Test compounds present at 10uM.
- Assay type: functional
measurementKind: Inhibition (%)
Numeric answer only, unit % assumed.

Entry CC(C)(CNC(=O)/C=C/c1ccc(C(F)(F)F)cc1)CNc1cc(=O)c2ccccc2[nH]1 , Inhibition reported as 0

# Inhibition (compound: O=C(Nc1ccc(OC2CCN(Cc3ccc(F)cc3)C2)c(Cl)c1)c1ccc(F)cc1.O=C(O)C(F)(F)F (stereo not drawn) ) is 10

Reported Inhibition ( Br.CCn1c2c(c(=N)c3ccccc31)CCC2 ) = 11

For reference, reported Inhibition for CC1(C)CCNc2cc(NC(=O)c3ccc(-c4ncccc4C(F)(F)F)cc3)ccc21.Cl stands at 7

Summary for this compound, C[C@H]1CN(Cc2cccc(-c3cc(CNC(=O)c4cccc(CC5CCN(C)CC5)c4)ccc3F)c2)CCN1C : Inhibition is 42

Lab book: Inhibition of N#Cc1cccc(NC(=O)Nc2ccc(CC(=O)N3CCc4cc(Cl)c(N5CCN(C/C=C/c6ccccc6)CC5)cc43)cc2)c1 noted as 0

Nc1oc2c(CN3CCCCCC3)c(O)ccc2c(=O)c1-c1nc2ccccc2s1 yielded Inhibition of 12

Value of Inhibition reported for the compound Cc1cccc2nc(-c3cccc(-c4cccc(NC(=O)NC5CC5c5ccccc5)c4)c3)[nH]c12 (stereo not drawn) is 0

CC(C)Oc1cc2c(cc1NS(=O)(=O)c1ccc(-c3cccs3)cc1)CCN(C)CC2.Cl has a reported Inhibition of 9

# compound CN(C)c1nc2cc(-n3cnc4cc(-c5ccc(Cl)cc5)sc4c3=O)ccc2n1CCCN1CCCC1.O=C(O)C(F)(F)F ; its Inhibition = 99

Input Cc1cc(CNCCCCCCNCc2ccc(Cl)cc2)ccc1O . Output Inhibition: 23

Inhibition reading for CC(Oc1c(C2CCN(CCCCNC(=O)c3ccc(-c4ccc(Cl)cc4)cc3)CC2)ccc2c1CCCC2)C(N)=O (stereo not drawn) : 100

Inhibition measured on Cl.NC1=NC(c2ccccc2)N(c2ccc(Cl)c(Cl)c2)C(N)=N1 (stereo not drawn) = 13

* * *

- System: HepG2
- measurementProtocol: GSK_TCMDC: Percent inhibition of human HepG2 cell line. Test compounds present at 10uM.
- Assay type: functional
Criterion: Inhibition meeting or surpassing 50%. Met: 1.0. Not met: 0.0.

Hi team, for O=[N+]([O-])c1cccc(NC(=S)N2CCCN(Cc3ccc(C(F)(F)F)cc3)CC2)c1 , is the recorded Inhibition at or above 50%?
0.0

Is the recorded value of Inhibition equal to or greater than 50% for this compound? CC[C@H](C)CNC(=O)c1cncc(-c2ccc(CNCCCc3ccccc3)cc2)c1.O=C(O)C(F)(F)F
0.0

Say whether CN1CCCC(CN2CCN(Cc3ccc(-c4cccc(-c5nc6cc(F)ccc6[nH]5)c4)cc3)CC2)C1.O=C(O)C(F)(F)F (configuration not stated) shows Inhibition of 50% or more.
1.0

Please indicate if the recorded Inhibition for Cc1nc(-c2ccc(-c3ccc(NC(=O)Nc4ccc(I)c(OCCN(C)C)c4)cc3)c(C)c2)no1.Cl meets or exceeds 50%.
0.0

Check the entry COc1ccc(/N=[N+](\[O-])c2ccccc2/[N+]([O-])=N/c2ccc(OC)cc2)cc1 : does Inhibition equal or exceed 50%?
0.0

Form field: Inhibition at least 50%? Entry: CC1N=C(N)N=C(N)N1OCc1ccccc1.Cl (configuration not stated)
1.0

# check: Inhibition of COc1cc(NC(=O)c2sc(-c3ccc(Cl)cc3)cc2NC(=O)CN2CCCC2)ccc1OCCN1CCCC1.Cl is greater than or equal to 50%
0.0
